All figures here come from patent US20260028354A1.

system: ER in T47D cells (Homo sapiens (Human), UniProt P03372)
Sequence (P03372 whole entry): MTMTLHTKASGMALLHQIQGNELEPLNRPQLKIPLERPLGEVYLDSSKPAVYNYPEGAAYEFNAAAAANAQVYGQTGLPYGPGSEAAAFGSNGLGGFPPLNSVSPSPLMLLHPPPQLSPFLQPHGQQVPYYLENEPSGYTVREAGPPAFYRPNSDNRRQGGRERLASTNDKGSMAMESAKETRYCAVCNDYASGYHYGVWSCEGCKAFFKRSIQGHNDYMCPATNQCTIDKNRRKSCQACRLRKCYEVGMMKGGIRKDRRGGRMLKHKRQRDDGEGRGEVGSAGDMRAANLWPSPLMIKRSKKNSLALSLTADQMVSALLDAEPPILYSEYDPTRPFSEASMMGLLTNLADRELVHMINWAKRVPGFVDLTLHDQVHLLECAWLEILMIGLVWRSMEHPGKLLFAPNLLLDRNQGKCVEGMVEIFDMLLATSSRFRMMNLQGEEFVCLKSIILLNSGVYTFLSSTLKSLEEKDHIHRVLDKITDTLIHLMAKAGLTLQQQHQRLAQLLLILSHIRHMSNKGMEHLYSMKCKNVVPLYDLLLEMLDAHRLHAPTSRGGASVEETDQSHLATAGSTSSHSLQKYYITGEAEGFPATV
testMethodNotes: In-cell Western (ICW) ER degradation assay in T47D cells
Assay type: cell-based
testContext: read-out: T47D Dmax, T47D, maximal ER degradation, 16 hrs treatment
propertyMeasured: Dmax

Q: Using the record for "COc1cc(N2CCC3(CC2)CC(CN2CCC4(CC2)COc2c4ccc4c2CN([C@H]2CCC(=O)NC2=O)C4=O)C3)ccc1[C@@H]1c2ccc(O)cc2CC[C@@H]1c1ccccc1" , report its Dmax.
A: > 75%

Q: Using the record for COc1cc(N2CCC(CN3CC[C@@]4(c5ccc(N[C@H]6CCC(=O)NC6=O)cc5)C(C3)C4(F)F)CC2)ccc1[C@@H]1c2ccc(O)cc2CC[C@@H]1c1ccccc1 (some centres unmarked) , report its Dmax.
A: 25 to 50%

Q: Using the record for "COc1cc(N2CCC3(CC2)CC(CN2CCC4(CC2)COc2c4ccc4c2CN([C@H]2CCC(=O)NC2=O)C4=O)C3)c(F)cc1[C@@H]1c2ccc(O)cc2CC[C@@H]1c1ccccc1" , report its Dmax.
A: > 75%

Q: Using the record for "O=C1CC[C@H](N2Cc3c(ccc4c3OCC43CCN(CC4CC5(CCN(c6ccc([C@@H]7c8ccc(O)cc8CC[C@@H]7c7ccccc7)cn6)CC5)C4)CC3)C2=O)C(=O)N1" , report its Dmax.
A: > 75%

Q: Using the record for COc1cc(N2CCC3(CC2)CC(CN2CCN4c5ccc6c(c5OC[C@H]4C2)CN([C@H]2CCC(=O)NC2=O)C6=O)CO3)ccc1[C@H]1c2ccc(O)cc2CC[C@H]1c1ccccc1 (single isomer, unassigned) , report its Dmax.
A: > 75%

Q: Using the record for "COc1cc(N2CCC(CN3CCC4(CC3)COc3cc5c(cc34)CN([C@H]3CCC(=O)NC3=O)C5=O)CC2)c(F)cc1[C@@H]1c2ccc(O)cc2CC[C@@H]1c1ccccc1" , report its Dmax.
A: 50 to 75%

Q: Using the record for COc1cc([C@@H]2c3ccc(O)cc3CC[C@@H]2c2ccccc2)c(F)cc1N1CCC2(CC1)CC(CN1CCN3c4ccc5c(c4OC[C@H]3C1)CN([C@H]1CCC(=O)NC1=O)C5=O)C2 (single isomer, unassigned) , report its Dmax.
A: 50 to 75%

Q: Using the record for O=C1CCC(Nc2ccc(C34CCN(C[C@@H]5COC6(CCN(c7ccc([C@@H]8c9ccc(O)cc9CC[C@@H]8c8ccccc8)cc7)CC6)C5)CC3C4(F)F)cc2)C(=O)N1 (some centres unmarked) , report its Dmax.
A: < 25%

Q: Using the record for "COc1cc(N2CCC(CN3CCC4(CC3)COc3cc5c(cc34)CN([C@H]3CCC(=O)NC3=O)C5=O)CC2)ccc1[C@H]1c2ccc(O)cc2CC[C@H]1c1ccccc1" , report its Dmax.
A: 25 to 50%

Q: Using the record for "COc1cc(N2CCC(CN3CCC4(CC3)COc3c4ccc4c3CN([C@H]3CCC(=O)NC3=O)C4=O)CC2)ccc1[C@@H]1c2ccc(O)cc2CC[C@@H]1c1ccccc1" , report its Dmax.
A: 25 to 50%

Q: Using the record for COc1cc(N2CCC(CN3CC[C@@]4(c5ccc(N[C@@H]6CCC(=O)NC6=O)cc5)C(C3)C4(F)F)CC2)ccc1[C@@H]1c2ccc(O)cc2CC[C@@H]1c1ccccc1 (mixture of isomers) , report its Dmax.
A: 25 to 50%

Q: Using the record for O=C1CCC(Nc2ccc(C34CCN(C[C@H]5COC6(CCN(c7ccc([C@@H]8c9ccc(O)cc9CC[C@@H]8c8ccccc8)cc7)CC6)C5)CC3C4(F)F)cc2)C(=O)N1 (some centres unmarked) , report its Dmax.
A: < 25%

Q: Using the record for "COc1cc(N2CCC3(CC2)C[C@H](CN2CCC4(CC2)COc2c4ccc4c2CN([C@H]2CCC(=O)NC2=O)C4=O)CO3)c(F)cc1[C@@H]1c2ccc(O)cc2CC[C@@H]1c1ccccc1" , report its Dmax.
A: > 75%

Q: Using the record for "O=C1CC[C@H](N2Cc3cc4c(cc3C2=O)OCC42CCN(C[C@H]3COC4(CCN(c5ccc([C@H]6c7ccc(O)cc7CC[C@H]6c6ccccc6)cc5)CC4)C3)CC2)C(=O)N1" , report its Dmax.
A: 25 to 50%

Q: Using the record for "COc1cc(N2CCC(CN3CCC4(CC3)COc3c4ccc4c3CN([C@H]3CCC(=O)NC3=O)C4=O)CC2)ccc1[C@H]1c2ccc(O)cc2CC[C@H]1c1ccccc1" , report its Dmax.
A: 25 to 50%

Q: Using the record for "O=C1CC[C@@H](Nc2ccc([C@@]34CCN(CC5CC6(CCN(c7ccc([C@@H]8c9ccc(O)cc9CC[C@@H]8c8ccccc8)cc7)CC6)C5)C[C@@H]3C4(F)F)cc2)C(=O)N1" , report its Dmax.
A: 50 to 75%

Q: Using the record for COc1cc([C@H]2c3ccc(O)cc3CC[C@H]2c2ccccc2)c(F)cc1N1CCC2(CC1)CC(CN1CCN3c4ccc5c(c4OC[C@H]3C1)CN([C@H]1CCC(=O)NC1=O)C5=O)C2 (single isomer, unassigned) , report its Dmax.
A: > 75%

Q: Using the record for "COc1cc(N2CCC3(CC2)CC(CN2CCC4(CC2)COc2cc5c(cc24)CN([C@H]2CCC(=O)NC2=O)C5=O)C3)c(F)cc1[C@@H]1c2ccc(O)cc2CC[C@@H]1c1ccccc1" , report its Dmax.
A: > 75%

Q: Using the record for "O=C1CC[C@@H](Nc2ccc([C@@]34CCN(CC5CCC6(CC5)CN(c5ccc([C@@H]7c8ccc(O)cc8CC[C@@H]7c7ccccc7)cc5)C6)C[C@@H]3C4(F)F)cc2)C(=O)N1" , report its Dmax.
A: 50 to 75%

Q: Using the record for "COc1cc(N2CCC(CN3CC[C@]4(c5ccc(N[C@H]6CCC(=O)NC6=O)cc5)[C@H](C3)C4(F)F)CC2)ccc1[C@@H]1c2ccc(O)cc2CC[C@@H]1c1ccccc1" , report its Dmax.
A: 25 to 50%
